System: Mcl-1-/- mouse embryonic fibroblasts (MEF)
method: Cell viability assay for Mcl-1-/- mouse embryonic fibroblasts (CellTiter-Glo)
Format: cell-based
particulars: Fibroblast, in the presence of 10% Fetal Bovine Serum, read-out: MEF Mcl-1-/- KO cell viability results (EC50)
Kindly state EC50 for each of the entries shown.

Record request: EC50 value, item O=C(Nc1nc2ccccc2s1)c1cccc2c1CN(c1nc(C(=O)O)c(CCCOc3ccc(N4CCNCC4)cc3)s1)CC2 [Example 64]
310 nM

Record request: EC50 value, item CN1CCN(c2ccc(OCCCc3ccc(N4CCc5cccc(C(=O)Nc6nc7ccccc7s6)c5C4)nc3C(=O)O)cc2)CC1 [Example 94]
448 nM

Record request: EC50 value, item CN(C)CCCc1ccc(OCCCc2ccc(N3CCc4cccc(C(=O)Nc5nc6ccccc6s5)c4C3)nc2C(=O)O)c(F)c1 [Example 100]
399 nM
